# subject-of-test: glucagon receptor (GCGR) (Homo sapiens, UniProt P47871)
# Construct: expressed in transfected cells; host or cells: CHO-K1 cells overexpressing GCGR (membrane fractions)
# Sequence (P47871 26-477): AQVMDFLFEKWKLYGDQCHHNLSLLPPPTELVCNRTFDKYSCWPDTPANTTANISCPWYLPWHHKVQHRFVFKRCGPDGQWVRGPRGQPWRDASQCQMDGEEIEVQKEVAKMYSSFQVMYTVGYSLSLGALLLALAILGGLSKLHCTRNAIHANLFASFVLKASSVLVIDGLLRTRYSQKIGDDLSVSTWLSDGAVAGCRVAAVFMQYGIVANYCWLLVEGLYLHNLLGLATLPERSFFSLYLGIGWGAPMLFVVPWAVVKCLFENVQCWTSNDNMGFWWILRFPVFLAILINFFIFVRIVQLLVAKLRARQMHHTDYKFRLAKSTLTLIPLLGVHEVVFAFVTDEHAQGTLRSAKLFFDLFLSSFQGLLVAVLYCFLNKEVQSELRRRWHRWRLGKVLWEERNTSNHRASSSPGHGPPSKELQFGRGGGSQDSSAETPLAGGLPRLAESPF
# assay-details: I125-glucagon binding assay (competition, GCGR membrane fractions)
measurement-type: IC50 (µM)

As a guide, the following entries are already answered.
molecule	value-measured
CC(C)(C)c1nnc(-c2ccc(OC[C@@H](Nc3ccc(C(=O)NCCC(=O)O)cc3)c3ccc(-c4ccc(C(F)(F)F)cc4)cc3)nc2)o1 [Compound 15-30]	2
CCCOC[C@H](Cc1ccc(-c2c(C)cc(C)cc2C)cc1)Nc1ccc(C(=O)NCCC(=O)O)cc1 [Compound 19-16]	3.7
CC(C)COC[C@H](Cc1ccc(-c2cc(F)c(F)c(F)c2)cc1)Nc1ccc(C(=O)NCCC(=O)O)cc1 [Compound 19-31]	0.5

I: O=C(O)CCNC(=O)c1ccc(N[C@@H](Cc2ccccc2)C(=O)Nc2ccc(-c3ccc(Cl)cc3Cl)cc2)cc1 [Compound 23-2]
II: CC(C)COC[C@H](Cc1ccc(-c2ccc(OC(F)(F)F)cc2)cc1)Nc1ccc(C(=O)NCCC(=O)O)cc1 [Compound 19-33]
Of I versus II , which is the one with smaller reported IC50? Write down the label attached to your selection.
II

----------
# subject-of-test: glucagon receptor (GCGR) overexpressed CHO-K1 cells or human primary hepatocytes (Homo sapiens, UniProt P47871)
# Construct: expressed in transfected cells; host or cells: GCGR overexpressed CHO-K1 cells or human primary hepatocytes (endogenous receptor)
# assay-details: Glucagon cAMP inhibition assay (Cisbio cAMP Dynamic 2 HTRF)
# Format: cell-based
# experimental-setup: inhibition of glucagon (EC50 concentration) induced cAMP production
measurement-type: IC50 cAMP (nM)

compound	measurement-type	value-measured
CC(C)C[C@@H](COc1ccc(-c2ccc(Cl)cc2Cl)c(F)c1)Nc1ccc(C(=O)NCCC(=O)O)cc1	IC50 cAMP	182
CC(C)C[C@@H](COc1cc(F)c(-c2ccc(C(F)(F)F)cc2)c(F)c1)Nc1ccc(C(=O)NCCC(=O)O)cc1	IC50 cAMP	371
CC(C)[C@@H](COc1ccc(-c2ccc(C(F)(F)F)cc2F)nn1)Nc1ccc(C(=O)NCCC(=O)O)cc1	IC50 cAMP	11597
CC(C)[C@@H](COc1ccc(-c2cc3ccccc3o2)c(Cl)c1)Nc1ccc(C(=O)NCc2nnn[nH]2)cc1	IC50 cAMP	1863
O=C(O)CCNC(=O)c1ccc(NC(COc2ccc(-c3ccc(C(F)(F)F)cc3)cc2)c2ccccc2)cc1 (stereo not shown)	IC50 cAMP	287.7
CCCC[C@@H](COc1ccc(-c2cc(Cl)cc(Cl)c2)nc1)Nc1ccc(C(=O)NCCC(=O)O)cc1	IC50 cAMP	493
CCCC[C@@H](COc1ccc(-c2cc3ccccc3o2)c(F)c1)Nc1ccc(C(=O)NCCC(=O)O)cc1	IC50 cAMP	84
CCCC[C@@H](COc1ccc(-c2ccc(C(F)(F)F)cc2)cc1)Nc1ccc(C(=O)NCCC(=O)O)cc1	IC50 cAMP	338.8

I: CC(C)[C@@H](COc1ccc(-c2ccc(C(F)(F)F)cn2)cc1)Nc1ccc(C(=O)NCCC(=O)O)cc1
II: CC[C@H](C)[C@@H](COc1ccc(-c2ccc(Cl)cc2Cl)cc1)Nc1ccc(C(=O)NCc2nnn[nH]2)cc1
Please choose the item with the lower IC50 cAMP value from this pair: I and II API: response body contains the label of the selected item.
I
(I: 187.5 nM, II: 1730 nM)

----------
# subject-of-test: glucagon receptor (GCGR) (Homo sapiens)
# Construct: expressed in transfected cells; host or cells: CHO-K1 cells overexpressing GCGR (membrane fractions)
# assay-details: I125-glucagon binding assay (competition, GCGR membrane fractions)
# experimental-setup: competition with I125-glucagon 0.0625 nM, membrane fractions of GCGR overexpressed CHO-K1 cells
measurement-type: IC50 (nM)

CC(C)C[C@@H](COc1cc(F)c(-c2ccc(C(F)(F)F)cc2)c(F)c1)Nc1ccc(C(=O)NCCC(=O)O)cc1 144
CC(C)[C@@H](COc1ccc(-c2ccc(C(F)(F)F)cc2)nc1)Nc1ccc(C(=O)NCCC(=O)O)cc1 531

1: CC(C)[C@H](COc1ccc(-c2nc3ccccc3o2)cc1)Nc1ccc(C(=O)NCCC(=O)O)cc1
2: CC(C)[C@@H](COc1ccc(-c2cc3ccccc3o2)nn1)Nc1ccc(C(=O)NCCC(=O)O)cc1
3: CC(C)[C@@H](COc1ccc(-c2ccc(C(F)(F)F)cc2F)cc1)Nc1ccc(C(=O)NCCC(=O)O)cc1
Returns the items ordered by IC50, from maximum to minimum. API: response body holds the labels in the requested order.
2, 1, 3
(2: 2040 nM, 1: 95 nM, 3: 44 nM)

1: CC(C)[C@@H](COc1ccc(-c2cc3ccccc3o2)c(F)c1)Nc1ccc(C(=O)NCCS(=O)(=O)O)cc1
2: Cc1cc(OC[C@@H](Cc2ccccc2)Nc2ccc(C(=O)NCCC(=O)O)cc2)cc(C)c1-c1ccc(OC(F)(F)F)cc1
Among 1 and 2 , whose measured IC50 is the smaller figure? Mark your selection by writing its label.
2
(2: 378 nM, 1: 1720 nM)

----------
# subject-of-test: glucagon receptor (GCGR) overexpressed CHO-K1 cells or human primary hepatocytes (Homo sapiens)
# Construct: expressed in transfected cells; host or cells: GCGR overexpressed CHO-K1 cells or human primary hepatocytes (endogenous receptor)
# assay-details: Glucagon cAMP inhibition assay (Cisbio cAMP Dynamic 2 HTRF)
# Type: cell-based
measurement-type: IC50 cAMP (µM)

compound	IC50 cAMP / µM
CCCC[C@@H](COc1ccc(-c2cc3ccccc3o2)cn1)Nc1ccc(C(=O)NCCC(=O)O)cc1	0.168

A: CCCOC[C@H](Cc1ccc(-c2ccc(OC(F)(F)F)cc2)cc1)Nc1ccc(C(=O)NCCC(=O)O)cc1 [Compound 19-24]
B: CC[C@H](C)[C@@H](COc1ccc(-c2ccc(Cl)cc2Cl)c(C)n1)Nc1ccc(C(=O)NCCC(=O)O)cc1
Could you tell me which of these two has the smaller IC50 cAMP figure? First: A Second: B Your choice should be expressed through its label.
B

----------
# subject-of-test: glucagon receptor (GCGR) (Homo sapiens, UniProt P47871)
# Construct: expressed in transfected cells; host or cells: CHO-K1 cells overexpressing GCGR (membrane fractions)
# assay-details: I125-glucagon binding assay (competition, GCGR membrane fractions)
# experimental-setup: competition with I125-glucagon 0.0625 nM, membrane fractions of GCGR overexpressed CHO-K1 cells
measurement-type: IC50 (nM)

// solved cases for IC50 follow
CCCC[C@@H](COc1ccc(-c2ccc(C(F)(F)F)cc2F)c(Cl)c1)Nc1ccc(C(=O)NCCC(=O)O)cc1 83
CC[C@H](C)[C@@H](CSc1ccc(-c2cc3ccccc3o2)cc1)Nc1ccc(C(=O)NCCC(=O)O)cc1 400
CC(C)[C@@H](COc1cc(F)c(-c2ccc(C(F)(F)F)cc2F)c(F)c1)Nc1ccc(C(=O)NCCC(=O)O)cc1 182

A: CC(C)[C@@H](COc1ccc(-c2cc3ccccc3o2)c(Cl)c1)Nc1ccc(C(=O)NCCC(=O)O)cc1
B: CC[C@H](C)[C@@H](COc1ccc(-c2ccc(C(F)(F)F)cc2Cl)nn1)Nc1ccc(C(=O)NCCC(=O)O)cc1
C: CC(C)[C@@H](COc1ccc(-c2cc3ncccc3o2)cc1)Nc1ccc(C(=O)NCCC(=O)O)cc1
Would you mind ranking these compounds by ascending IC50? List the labels in the requested order.
A, C, B

----------
# subject-of-test: glucagon receptor (GCGR) overexpressed CHO-K1 cells or human primary hepatocytes (Homo sapiens)
# Construct: expressed in transfected cells; host or cells: GCGR overexpressed CHO-K1 cells or human primary hepatocytes (endogenous receptor)
# assay-details: Glucagon cAMP inhibition assay (Cisbio cAMP Dynamic 2 HTRF)
# Format: cell-based
# experimental-setup: inhibition of glucagon (EC50 concentration) induced cAMP production
measurement-type: IC50 cAMP (nM)

In the examples that follow, each entry is paired with its recorded IC50 cAMP.
compound	measurement-type	unit-abbrev	value-measured
CC(C)[C@@H](COc1ccc(-c2ccc(Cl)cc2Cl)c(F)c1)Nc1ccc(C(=O)NCCC(=O)O)cc1	IC50 cAMP	nM	365
CC[C@H](C)[C@@H](COc1ccc(-c2ccc(C(C)(C)C)cc2)cc1)Nc1ccc(C(=O)NCCC(=O)O)cc1	IC50 cAMP	nM	884.4
CCCC[C@@H](COc1ccc(-c2ccc(C(F)(F)F)cc2Cl)c(F)c1)Nc1ccc(C(=O)NCCC(=O)O)cc1	IC50 cAMP	nM	129
CCOC(=O)CCNC(=O)c1ccc(N[C@@H](COc2ccc(-c3nc4ccccc4o3)cc2)C(C)C)cc1	IC50 cAMP	nM	90
Cc1nn(-c2ncc(OC[C@H](CC(C)C)Nc3ccc(C(=O)NCCC(=O)O)cc3)cn2)cc1C(F)(F)F	IC50 cAMP	nM	14170

1: CC[C@H](C)[C@@H](COc1ccc(-c2nnc(-c3ccccc3)o2)c(OC)c1)Nc1ccc(C(=O)NCCC(=O)O)cc1
2: CC[C@H](C)[C@@H](COc1ccc(-c2ccc(Cl)cc2Cl)cc1)Nc1ccc(C(=O)NCCC(=O)O)cn1
I'm curious whether 1 or 2 has the smaller IC50 cAMP number. Which is it? State the label of the item chosen.
2
(2: 414 nM, 1: 23347 nM)
